Biological target: T1R1/T1R3 receptor (Felis catus, UniProt E3UMS2)
Assay: cell-based
Settings: T1R1/T1R3 EC50 +20 mM L-alanine + 0.2 mM IMP
Result type: EC50

1) O=C1CC(=O)N(Cc2ccccc2)C(=O)N1Cc1ccccc1	> 300 µM

###

Target: T1R1/T1R3 receptor (Felis catus, UniProt E3UMS2)
Assay: cell-based
Type: cell-based
Conditions: +Alanine (20 mM); Table 18
Source text: HEK293 cells that stably express T1R3 and inducibly express T1R1 were exposed to transmembrane compounds alone or in combination with one or more amino acids and/or one or more nucleotides to activate the umami receptor. Activation of the T1R1/T1R3 receptor was detected by a change in intracellular calcium levels using a calcium sensitive fluorescent dye. Cells that express T1R3 but not T1R1 were used as a control. A FLIPR® Tetra or a FlexStation® 3 was used for data capture. […]
Class 1 (yes): Max resp ΔF/F +Alanine at least 0.4. Class 0 (no): Max resp ΔF/F +Alanine below 0.4.

1. COc1ccc(C(=O)NC(C)c2ccccc2)cc1C (stereo not shown)	1 (yes)
2. CC1CCCC(NC(=O)c2ccc3c(c2)OCO3)C1C (stereo not shown)	0 (no)
3. O=C(Nc1ccccc1Br)N[C@@H]1c2ccccc2C[C@@H]1O (stereo in doubt)	0 (no)
4. O=C(NCCc1ccccc1)C(=O)NCc1cccnc1	0 (no)
5. O=C(CN1C(=O)C(=O)N(Cc2ccccc2)C1=O)c1ccccc1	1 (yes)
6. CCC(CC)NC(=O)c1ccc(C)c(C)c1 [3,4-dimethyl-N-(pentan-3-yl)benzamide]	1 (yes)
7. CCC(CC)NC(=O)/C=C/c1ccc(OC)cc1	1 (yes)
8. CCC(CC)NC(=O)c1ccc2c(c1)OCCO2	0 (no)
9. CCCC(C)NC(=O)c1ccc(OC)c(C)c1 (stereo not shown)	1 (yes)
10. CCC(CC)NC(=O)c1ccc(OC)c(OC)c1 [3,4-dimethoxy-N-(pentan-3-yl)benzamide]	1 (yes)
11. COC(=O)C(NC(=O)/C=C/c1cccs1)C(C)C (stereo not shown)	0 (no)
12. COc1ccc(/C=C/C(=O)NC2CCCCC2C)cc1 (stereo not shown)	1 (yes)
13. CCC(CC)NC(=O)c1ccc(Br)o1	1 (yes)

###

Target: T1R1/T1R3 receptor (Felis catus, UniProt E3UMS2)
Assay: cell-based
Assay type: cell-based
Conditions: + Alanine (20 nM); Table 17
Result type: Thres +Alanine (mM)

1) CCC(CC)NC(=O)c1ccc(C)c(C)c1 [3,4-dimethyl-N-(pentan-3-yl)benzamide]	3
2) CCC(CC)NC(=O)c1ccc2c(c1)OCCO2	0.3
3) O=C(NCCc1ccccc1)C(=O)NCc1cccnc1	1
4) COC(=O)C(NC(=O)/C=C/c1cccs1)C(C)C (stereo not shown)	10
5) O=C(CN1C(=O)C(=O)N(Cc2ccccc2)C1=O)c1ccccc1	1
6) CC1CCCC(NC(=O)c2ccc3c(c2)OCO3)C1C (stereo not shown)	3
7) CCC(CC)NC(=O)/C=C/c1ccc(OC)cc1	0.148
8) CCCC(C)NC(=O)c1ccc(OC)c(C)c1 (stereo not shown)	0.050
9) CCC(CC)NC(=O)c1ccc(Br)o1	1
10) COc1ccc(C(=O)NC(C)c2ccccc2)cc1C (stereo not shown)	3
11) CCC(CC)NC(=O)c1ccc(OC)c(OC)c1 [3,4-dimethoxy-N-(pentan-3-yl)benzamide]	0.3
12) COc1ccc(/C=C/C(=O)NC2CCCCC2C)cc1 (stereo not shown)	3
13) O=C(Nc1ccccc1Br)N[C@@H]1c2ccccc2C[C@@H]1O (stereo in doubt)	3

###

Target: T1R1/T1R3 receptor (Felis catus)
Assay: cell-based
Conditions: EC50 (mM), +IMP (0.2 mM), in the presence of 0.2 mM IMP
True if EC50 is below 9 mM. False if not; exact matches included in False.

1. N[C@@H](Cc1ccccc1)C(=O)O [L-Phenylalanine, reference compound]	True
2. N[C@@H](CS)C(=O)O	False
3. O=C(NCCc1ccccc1)c1ccccc1 [N-phenethylbenzamide]	True
4. O=C(NCCc1ccccc1)c1ccc2c(c1)OCO2	True
5. N[C@@H](Cc1c[nH]c2ccccc12)C(=O)O	True
6. N[C@@H](Cc1ccc(O)cc1)C(=O)O	False
7. N[C@@H](Cc1c[nH]cn1)C(=O)O	False

###

Molecular target: T1R1/T1R3 receptor (Felis catus)
Assay: cell-based
Format: cell-based
Settings: + Alanine; Table 17; read-out: EC50 + Alanine
Readings of EC50 for the listed compounds
Result type: EC50

1) O=C(Nc1ccccc1Br)N[C@@H]1c2ccccc2C[C@@H]1O (stereo in doubt)	> 3 mM
2) O=C(NCCc1ccccc1)C(=O)NCc1cccnc1	> 1 mM
3) COc1ccc(C(=O)NC(C)c2ccccc2)cc1C (centres unmarked)	> 3 mM
4) CCC(CC)NC(=O)c1ccc(Br)o1	> 3 mM
5) CCC(CC)NC(=O)c1ccc(C)c(C)c1 [3,4-dimethyl-N-(pentan-3-yl)benzamide]	> 3 mM
6) CCC(CC)NC(=O)c1ccc2c(c1)OCCO2	> 1 mM
7) CCC(CC)NC(=O)c1ccc(OC)c(OC)c1 [3,4-dimethoxy-N-(pentan-3-yl)benzamide]	> 10 mM
8) COc1ccc(/C=C/C(=O)NC2CCCCC2C)cc1 (centres unmarked)	> 10 mM

###

Target: T1R1/T1R3 receptor (Felis catus)
Assay: cell-based
Assay type: cell-based
Settings: + IMP (0.2 mM); Table 17
Class MET: Thres + IMP at least 0.3 mM. Class NOT MET: Thres + IMP below 0.3 mM.

1) CCC(CC)NC(=O)c1ccc(C)c(C)c1 [3,4-dimethyl-N-(pentan-3-yl)benzamide]	MET
2) COC(=O)C(NC(=O)/C=C/c1cccs1)C(C)C (stereo not drawn)	MET
3) CC1CCCC(NC(=O)c2ccc3c(c2)OCO3)C1C (stereo not drawn)	NOT MET
4) CCCC(CCC)C(=O)Nc1ccc2c(c1)OCO2	NOT MET
5) O=C(Nc1ccccc1Br)N[C@@H]1c2ccccc2C[C@@H]1O (stereo in doubt)	MET
6) COc1ccc(C(=O)NC(C)c2ccccc2)cc1C (stereo not drawn)	MET
7) CCCC(C)NC(=O)c1ccc(OC)c(C)c1 (stereo not drawn)	NOT MET
8) O=C(CN1C(=O)C(=O)N(Cc2ccccc2)C1=O)c1ccccc1	NOT MET
9) CCC(CC)NC(=O)c1ccc2c(c1)OCCO2	NOT MET
10) CSc1ccc(-c2nnn(Cc3ccccn3)n2)cc1	NOT MET
11) CCC(CC)NC(=O)/C=C/c1ccc(OC)cc1	NOT MET

###

Readings of log10(Threshold) for the listed compounds
Biological target: cat T1R1/T1R3 receptor (Felis catus)
Sequence (A0ABI7Z2I4 171-420): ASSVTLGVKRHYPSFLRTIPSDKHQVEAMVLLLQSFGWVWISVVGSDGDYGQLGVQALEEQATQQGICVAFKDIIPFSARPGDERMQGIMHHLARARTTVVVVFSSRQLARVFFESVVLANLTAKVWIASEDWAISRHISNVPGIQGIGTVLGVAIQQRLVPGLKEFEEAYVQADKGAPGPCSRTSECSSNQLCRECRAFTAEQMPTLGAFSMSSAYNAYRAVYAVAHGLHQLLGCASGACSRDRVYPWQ
Sequence (Q49KI5 25-865 E206Q/N523D/F654L partner): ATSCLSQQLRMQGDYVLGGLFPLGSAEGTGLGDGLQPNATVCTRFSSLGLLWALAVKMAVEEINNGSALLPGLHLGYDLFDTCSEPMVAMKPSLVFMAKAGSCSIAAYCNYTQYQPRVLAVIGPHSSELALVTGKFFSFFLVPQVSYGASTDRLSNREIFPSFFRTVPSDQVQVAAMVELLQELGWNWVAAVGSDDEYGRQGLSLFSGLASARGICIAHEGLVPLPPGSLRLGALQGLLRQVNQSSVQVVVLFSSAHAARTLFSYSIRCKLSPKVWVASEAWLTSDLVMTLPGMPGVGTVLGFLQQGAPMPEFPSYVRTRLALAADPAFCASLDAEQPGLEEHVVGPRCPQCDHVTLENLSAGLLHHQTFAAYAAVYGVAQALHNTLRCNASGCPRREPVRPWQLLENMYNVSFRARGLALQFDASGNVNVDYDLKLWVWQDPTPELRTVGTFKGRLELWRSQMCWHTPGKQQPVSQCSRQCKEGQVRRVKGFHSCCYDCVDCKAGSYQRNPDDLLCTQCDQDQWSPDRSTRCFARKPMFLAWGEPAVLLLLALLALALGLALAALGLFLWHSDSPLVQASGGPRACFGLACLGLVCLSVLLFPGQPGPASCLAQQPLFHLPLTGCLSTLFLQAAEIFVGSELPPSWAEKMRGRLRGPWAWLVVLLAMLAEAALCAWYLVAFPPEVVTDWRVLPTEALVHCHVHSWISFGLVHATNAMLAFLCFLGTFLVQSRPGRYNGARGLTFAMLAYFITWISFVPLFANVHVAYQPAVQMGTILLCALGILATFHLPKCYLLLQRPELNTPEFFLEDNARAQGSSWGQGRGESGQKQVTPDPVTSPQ
Test: cell-based
Result type: log10(Threshold) (log10 of the value in mM)

1) Nc1nc2c(ncn2[C@@H]2O[C@H](COP(=O)(O)O)[C@@H](O)[C@H]2O)c(=S)[nH]1 [6-thioguanosine-5′-O-monophosphate]	-3.70
2) Nc1nc2c(ncn2C2CC(OP(=O)(O)O)C(COP(=O)(O)O)O2)c(=O)[nH]1 (stereo not drawn) [2′-Deoxyguanosine-3′,5′-O-bisphosphate]	-2.30
3) Nc1nc2c(ncn2[C@@H]2O[C@H](COP(=O)(O)OP(=O)(O)OP(=O)(O)O)[C@@H](O)[C@H]2O)c(=O)[nH]1 [Guanosine 5′-triphosphate]	-0.76
4) Nc1ncnc2c1ncn2[C@H]1C[C@H](OP(=O)(O)O)[C@@H](COP(=O)(O)O)O1 [2′-deoxyadenosine-3′, 5′-O-bisphosphate]	-2.30
5) Nc1nc(Cl)c2ncn(C3OC(COP(=O)(O)O)C(O)C3O)c2n1 (stereo not drawn)	-3.89
6) Nc1ncnc2c1ccn2[C@H]1O[C@@H](COP(=O)(O)O)[C@H](O)[C@@H]1O (stereo in doubt) [7-Deazaadenosine-5′-O-monophosphate]	-0.73
